B1: ZNF649 (parent)
chain: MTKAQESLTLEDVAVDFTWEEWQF

Variants of: B1
METHOD_DESCRIPTION: protein stability index of a GFP-peptide fusion (GPS, HEK-293T) (PSI 1-6); higher = more stable;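 further: lentivirally expressed fusions sorted by FACS into six bins by GFP to DsRed ratio, PSI derived from sequencing read proportions per bin multiplied by bin number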
STATED_CONDITIONS: c terminus: a fixed tail appended
Threshold check on protein stability index: at or above 4 gives Fulfilled, strictly below gives Not fulfilled.

> print(dat)
     var          group
 1  Q23R  Not fulfilled
 2  V13Y  Not fulfilled
 3  W22I  Not fulfilled
 4  A14P      Fulfilled
 5  D16S  Not fulfilled
 6  W22D      Fulfilled
 7   L8K      Fulfilled
 8  D16H  Not fulfilled
 9   K3I  Not fulfilled
10   L8I  Not fulfilled
11  E21G  Not fulfilled
12  E11P  Not fulfilled
13  W19P      Fulfilled
